- method notes: Antagonist activity at human recombinant CCR5 expressed in human HeLa-P4 cells assessed as inhibition of human HeLa-P4 cells binding to HIV1 gp160 expressing CHO cells by cell-cell fusion assay
endpoint label: IC50

[
  {
    "compound": "CC(=O)N1CCC(C(=O)N[C@@H](CC(C)N2CCC(n3c(C)nnc3C(C)C)CC2)c2ccccc2)CC1 (mixture of isomers)",
    "endpoint label": "IC50",
    "observed value": "28.7 nM"
  },
  {
    "compound": "Cc1nnc(C(C)C)n1C1CCN(C(C)C[C@H](NC(=O)C2CC[S+]([O-])CC2)c2ccccc2)CC1 (mixture of isomers)",
    "endpoint label": "IC50",
    "observed value": "4.87 nM"
  },
  {
    "compound": "Cc1nnc(C(C)C)n1C1CCN(C(C)C[C@H](NC(=O)C2CCS(=O)(=O)CC2)c2ccccc2)CC1 (mixture of isomers)",
    "endpoint label": "IC50",
    "observed value": "6.12 nM"
  },
  {
    "compound": "Cc1nnc(C(C)C)n1C1CCN(C(C)C[C@H](NC(=O)N2CCOCC2)c2ccccc2)CC1 (mixture of isomers)",
    "endpoint label": "IC50",
    "observed value": "176 nM"
  },
  {
    "compound": "Cc1nnc(C(C)C)n1C1CCN(C(C)C[C@H](NC(=O)C2CCCC2)c2ccccc2)CC1 (mixture of isomers)",
    "endpoint label": "IC50",
    "observed value": "0.137 nM"
  },
  {
    "compound": "Cc1nnc(C(C)C)n1C1CCN(C(C)C[C@H](NC(=O)C2CCCCC2)c2ccccc2)CC1 (mixture of isomers)",
    "endpoint label": "IC50",
    "observed value": "0.513 nM"
  },
  {
    "compound": "Cc1nnc(C(C)C)n1C1CCN(C(C)C[C@H](NC(=O)CC2CC2)c2ccccc2)CC1 (mixture of isomers)",
    "endpoint label": "IC50",
    "observed value": "3.16 nM"
  },
  {
    "compound": "Cc1nnc(C(C)C)n1C1CCN(C(C)C[C@H](NC(=O)C2CCOCC2)c2ccccc2)CC1 (mixture of isomers)",
    "endpoint label": "IC50",
    "observed value": "164 nM"
  },
  {
    "compound": "Cc1nnc(C(C)C)n1C1CCN(C(C)C[C@H](NC(=O)COCC(F)(F)F)c2ccccc2)CC1 (mixture of isomers)",
    "endpoint label": "IC50",
    "observed value": "52.8 nM"
  },
  {
    "compound": "Cc1nnc(C(C)C)n1C1CCN(C(C)C[C@H](NC(=O)C(C)C)c2ccccc2)CC1 (mixture of isomers)",
    "endpoint label": "IC50",
    "observed value": "3.11 nM"
  },
  {
    "compound": "Cc1nnc(C(C)C)n1C1CCN([C@@H](C)C[C@H](NC(=O)C2CCC(F)(F)CC2)c2ccccc2)CC1",
    "endpoint label": "IC50",
    "observed value": "49.9 nM"
  }
]

* * *

- method notes: Antagonist activity at human recombinant CCR5 expressed in human HeLa-P4 cells assessed as inhibition of human HeLa-P4 cells binding to HIV1 gp160 expressing CHO cells by cell-cell fusion assay
pIC50: −log10 of the molar value.
Entries and their measured pIC50 follow.
endpoint label: pIC50

[
  {
    "compound": "Cc1nnc(C(C)C)n1C1CCN(C(C)C[C@H](NC(=O)C2CC2)c2ccccc2)CC1 (mixture of isomers)",
    "endpoint label": "pIC50",
    "observed value": 8.41
  },
  {
    "compound": "Cc1nc(C(C)C)n(C2CC3CCC(C2)N3CC[C@H](NC(=O)C2CCC(F)(F)CC2)c2ccccc2)n1 (some centres not stated)",
    "endpoint label": "pIC50",
    "observed value": 8.85
  },
  {
    "compound": "Cc1nnc(C(C)C)n1C1CCN(C(C)C[C@H](NC(=O)N2CCN(C)CC2)c2ccccc2)CC1 (mixture of isomers)",
    "endpoint label": "pIC50",
    "observed value": 6.73
  },
  {
    "compound": "CC(=O)N[C@@H](CC(C)N1CCC(n2c(C)nnc2C(C)C)CC1)c1ccccc1 (mixture of isomers)",
    "endpoint label": "pIC50",
    "observed value": 7.05
  },
  {
    "compound": "Cc1nnc(C(C)C)n1C1CCN(C(C)C[C@H](NC(=O)CC(F)(F)F)c2ccccc2)CC1 (mixture of isomers)",
    "endpoint label": "pIC50",
    "observed value": 7.07
  },
  {
    "compound": "COC(=O)N[C@@H](CC(C)N1CCC(n2c(C)nnc2C(C)C)CC1)c1ccccc1 (mixture of isomers)",
    "endpoint label": "pIC50",
    "observed value": 6.50
  },
  {
    "compound": "Cc1nnc(C(C)C)n1C1CCN([C@H](C)C[C@H](NC(=O)C2CC(F)(F)C2)c2ccccc2)CC1",
    "endpoint label": "pIC50",
    "observed value": 9.32
  }
]
